- System: EKVX NSCLC
- Measurement description: NCI tumour cell line growth inhibition, 48 h
Listing of entries alongside the reported GI50.

Query string: // GI50 lookup, key: Nc1ncnc2c1c(C(=O)NO)cn2C1OC(CO)C(O)C1O (stereo not drawn)
Result string: 0.776 µM

Query string: Can you check CCCCC/C=C\C/C=C/CCCCCCCCNC(=O)Nc1ccc([N+](=O)[O-])cc1 next?
Result string: 23.8 µM

Query string: Can you check CC#CC(=O)N[C@H]1CCCN(c2c(F)cc(C(N)=O)c3[nH]c(C)c(C)c23)C1 next?
Result string: 18.3 µM

====

- System: SK-MEL-2 melanoma
- Measurement description: NCI tumour cell line growth inhibition, 48 h
Measurement kind: TGI (µM)
# unit: µM | format: bare number

Illustrative cases are given below, each with its answer.
INSERT INTO measurements (compound, measurement_kind, readout_value) VALUES
  ('O=C(/C=C/c1ccc(O)cc1)c1cc(O)cc(O)c1', 'TGI', 34.9),
  ('Cc1ccc(C(=O)c2[nH]c(Nc3ccc(Cl)cc3)c(C(=S)Nc3ccccc3)c2N)cc1', 'TGI', 31.7),
  ('O=[N+]([O-])c1cc(C(F)(F)F)ccc1S(=O)(=O)N[C@@H]1CCCC[C@H]1NS(=O)(=O)c1ccc(C(F)(F)F)cc1[N+](=O)[O-]', 'TGI', 9.88);

Query string: // TGI lookup, key: COc1cc(CCNc2nc3cc(N)cc(N)c3nc2-c2ccccc2)cc(OC)c1
Result string: 3.92

Query string: Can you check CSC1CC2C(CC1(C)SC)C2(C)C (stereo not given) next?
Result string: 56.8

Query string: Can you check N#C/C(=C\c1ccc([N+](=O)[O-])s1)c1nc2cc(Br)ccc2s1 next?
Result string: 0.672

====

Listing of entries alongside the reported TGI.
- Tested on: HCT-116 colon
- Measurement description: NCI tumour cell line growth inhibition, 48 h

Query string: // TGI lookup, key: N#Cc1nc(NC(=O)c2ccccc2)sc1N
Result string: > 10 µM

====

- Test system: A498 renal
- Measurement description: NCI tumour cell line growth inhibition, 48 h
Measurement kind: TGI

INSERT INTO measurements (molecule, measurement_kind, readout_value) VALUES
  ('N#Cc1nc(NC(=O)c2ccccc2)sc1N', 'TGI', '> 10 µM'),
  ('O=[N+]([O-])c1cc([N+](=O)[O-])c(C(Cl)C(Cl)c2ccccc2)cc1C(Cl)C(Cl)c1ccccc1 (stereo not drawn)', 'TGI', '3.33 µM');

Could you now look at the following molecule, please?
Query string: // TGI lookup, key: CC(=O)OCc1c(C)c2ccccc2n1C(C)=O
Result string: > 100 µM

====

Listing of entries alongside the reported TGI.
- Tested on: NCI-H226 lung
- Measurement description: NCI tumour cell line growth inhibition, 48 h

Illustrative cases are given below, each with its answer.
INSERT INTO results (molecule, readout_value) VALUES
  ('COc1cc([N+](=O)[O-])c(OC)cc1-c1nc2n(c1/C(N)=N/C(=N)N)CCS2', '> 100 µM'),
  ('CSC1CC2C(CC1(C)SC)C2(C)C (stereo not drawn)', '73.1 µM');

Could you now look at the following molecule, please?
Query string: Fill in the recorded TGI for this molecule, with NCI-H226 lung as test system: O=C1c2cscc2C(=O)c2c(OCc3ccccc3)ccc(OCc3ccccc3)c21
Result string: > 100 µM
